Target: Ubiquitin-conjugating enzyme E2 G2 (Homo sapiens)
Experiment: Binding affinity to recombinant TEV cleavage site-fused-His6-tagged Ube2g2 (unknown origin) expressed in Escherichia coli Rosetta2 (DE3) assessed as molecular weight of compound-protein conjugate at 5 uL measured after overnight incubation at pH 8.5 by LC/MS analysis (reference value: 18491 Da)
The source made the active and inactive calls. The calls are words filed in the database; no cut-off is given here.
property_label: Activity

Consider the following illustrative entries.
Query: What value of Activity on Ubiquitin-conjugating enzyme E2 G2 (Homo sapiens) does `C=CC(=O)N[C@@H](/C=C/C(=O)O)Cc1ccc(-c2cc(Cl)cc(Cl)c2)cc1` have?
Response: 18900 Da

Query: // next record `C=CC(=O)N[C@@H](CO)Cc1ccc(-c2cc(Cl)cc(Cl)c2)cc1`
Response: 18800 to 19200 Da

Query: // next record `C=CCC(=O)N[C@H](Cc1ccc(-c2cc(Cl)cc(Cl)c2)cc1)[C@@H](O)[C@H](O)C(=O)OCC`
Response: inactive

Query: // next record `C=CCC(=O)N[C@@H](/C=C/C(=O)O)Cc1ccc(-c2cc(Cl)cc(Cl)c2)cc1`
Response: inactive

Query: // next record `C=CC(=O)N[C@H](/C=C/C(=O)OCC)Cc1ccc(-c2cc(Cl)cc(Cl)c2)cc1`
Response: 18900 Da

Query: // next record `C=CC(=O)N[C@H](Cc1ccc(-c2cc(Cl)cc(Cl)c2)cc1)[C@@H](O)[C@H](O)C(=O)OCC`
Response: 18900 Da

Query: // next record `C=CCC(=O)N[C@@H](/C=C/C(=O)OCC)Cc1ccc(-c2cc(Cl)cc(Cl)c2)cc1`
Response: inactive

Query: // next record `C=CCC(=O)N[C@H](/C=C/C(=O)OCC)Cc1ccc(-c2cc(Cl)cc(Cl)c2)cc1`
Response: inactive

More entries:
Query: What value of Activity on Ubiquitin-conjugating enzyme E2 G2 (Homo sapiens) does `CC(C)(C)OC(=O)N[C@H](C=O)Cc1ccc(-c2cc(Cl)cc(Cl)c2)cc1` have?
Response: 18900 to 19300 Da

Query: // next record `C=CC(=O)N[C@@H](Cc1ccc(-c2cc(Cl)cc(Cl)c2)cc1)[C@H](O)[C@@H](O)C(=O)OCC`
Response: 18900 Da

From: ChEMBL document CHEMBL4368862
